Provenance of the data: the supplement of paper PMC13380429

Item-by-item account of cell viability
System: Caco-2
METHOD_NOTES: cell viability relative to DMSO; higher = less toxic
TEST_PARAMETERS: 72 h; 100 nM
Answer with the number, then the unit.

# MOLECULE, cell viability
rows = [
    ("Cc1ccc(-n2nc(C(C)(C)C)cc2NC(=O)NCc2cc(F)ccc2Oc2ccc3c(cnn3CCO)c2)cc1 [pexmetinib]", "91.4%"),
    ("O=C(O)Cc1sc(-c2ccccc2)nc1-c1ccc(Cl)cc1 [fentiazac]", "92.6%"),
]

query: Entry under review: Cc1cc(NC(=O)NCCN2CCC(O)(Cc3ccccc3)CC2)c2ccccc2n1 [palosuran] . Reported cell viability?
result: 88.3%

query: Please give the measured cell viability for this molecule: O=C1CS[C@@H](c2ccccc2Cl)c2cc(Cl)ccc2N1 (racemic)
result: 92.2%

----------
Test system: Calu-3
METHOD_NOTES: cell viability relative to DMSO; higher = less toxic
TEST_PARAMETERS: 72 h; 1000 nM
PROPERTY_MEASURED: cell viability (%)
Write down the numeric answer in % and omit the unit.

# COMPOUND, NUMBER
records = [
    ("Cc1cccc(NC(=O)CN2CCC(c3ccccn3)CC2)c1", 108),
    ("NC1(C(=O)N[C@@H](CCO)c2ccc(Cl)cc2)CCN(c2ncnc3[nH]ccc23)CC1 [AZD5363]", 85.6),
    ("NC(=O)[C@@H](CCC(F)(F)F)N(Cc1ccc(-c2ncon2)cc1F)S(=O)(=O)c1ccc(Cl)cc1 [avagacestat]", 95.2),
]

query: # query: cell viability of entry CCC(=O)NC1CCc2cccc(OC)c2C1 (stereo unspecified) [8-M-PDOT]
result: 97.6

query: Returns the measured cell viability for the input compound. Input: CN/C(=N\c1ccc(C2=NNC(=O)CC2C)cc1)NC#N (stereo unspecified) [siguazodan]
result: 102

query: Given the entry CCc1cccc(CC)c1NC(=O)N1Cc2[nH]nc(NC(=O)c3ccc(N4CCN(C)CC4)cc3)c2C1 , report its measured cell viability.
result: 95

----------
Test system: HepG2
METHOD_NOTES: cell viability relative to DMSO; higher = less toxic
TEST_PARAMETERS: 72 h; 1 nM
Listed below: cell viability values for each entry.
Answers without a unit are incomplete; give the number and then its unit.

Here are 2 compounds together with their reported answers.
# COMPOUND, cell viability
rows = [
    ("NC(=O)[C@@H](CCC(F)(F)F)N(Cc1ccc(-c2ncon2)cc1F)S(=O)(=O)c1ccc(Cl)cc1", "96.6%"),
    ("O=C(Oc1ccccc1)c1ccccc1O [phenyl-salicylate]", "100%"),
]

Lab note: next compound to report on.
query: Please state recorded cell viability (tested on HepG2) of COc1ccc(COc2cc3oc(=O)c4cc(C(C)O)ccc4c3cc2OC)cc1 (stereo not drawn)
result: 97.3%

----------
Test system: U2OS
METHOD_NOTES: cell viability relative to DMSO; higher = less toxic
TEST_PARAMETERS: 72 h; 10000 nM
PROPERTY_MEASURED: cell viability (%)
Give your result in % as a bare value.

Below are worked cases with known answers.
# COMPOUND, TEST_SYSTEM, PROPERTY_MEASURED, VALUE_UNITS, NUMBER
measured = [
    ("Cc1cc(C(C)(C)CC(C)(C)C)ccc1OCCOCC[N+](C)(C)Cc1ccccc1 [methylbenzethonium-chloride]", "U2OS", "cell viability", "%", 82.2),
    ("COC(=O)C1=C(C)NC(C)=C(C(=O)OCCN(C)Cc2ccccc2)C1c1cccc([N+](=O)[O-])c1 (stereo unspecified)", "U2OS", "cell viability", "%", 91.3),
    ("CCOC(=O)C1=C[C@@H](OC(CC)CC)[C@H](NC(C)=O)[C@@H](N)C1 [oseltamivir-phosphate]", "U2OS", "cell viability", "%", 102),
]

query: Suppose we examine the compound CCOC(=O)c1ccc(N(C)c2csc(-c3ccccc3)n2)cc1 ; what cell viability value has been reported?
result: 99.3

query: Any idea what its cell viability is? The compound is COC1(C2=NCCN2)COc2ccccc2O1 (stereo unspecified)
result: 101

query: Which value of cell viability has been reported for NC(=O)CN1CCCC1=O in the records?
result: 102

----------
System: Calu-3
METHOD_NOTES: cell viability relative to DMSO; higher = less toxic
TEST_PARAMETERS: 72 h; 1 nM
Listing: cell viability of selected compounds
Use % as the unit, but write only the number.

# COMPOUND, TEST_SYSTEM, PROPERTY_MEASURED, NUMBER
data = [
    ("O=NO [sodium-nitrite]", "Calu-3", "cell viability", 94.3),
    ("COc1cc2c(NC3CCN(C(C)C)CC3)nc(C3CCCCC3)nc2cc1OCCCN1CCCC1 [UNC0638]", "Calu-3", "cell viability", 108),
    ("C[C@H]1CCC/C=C/[C@@H]2C[C@H](O)C[C@H]2[C@H](O)/C=C/C(=O)O1 [brefeldin-A]", "Calu-3", "cell viability", 108),
    ("Cc1ccnc2c1NC(=O)c1cccnc1N2C1CC1 [nevirapine]", "Calu-3", "cell viability", 104),
    ("CC12CCC(C(=O)N(CCCCN3CCN(c4ccccn4)CC3)C1=O)C2(C)C (stereo not drawn) [piricapiron]", "Calu-3", "cell viability", 100),
    ("Cc1nc(NC(=O)N2CCC[C@H]2C(N)=O)sc1-c1ccnc(C(C)(C)C(F)(F)F)c1 [alpelisib]", "Calu-3", "cell viability", 87.4),
]

Let us move to another entry and its cell viability.
query: Recorded cell viability for Cc1ccc(NC(=O)Nc2cc(C(F)(F)F)ccc2F)cc1Nc1ccc2c(c1)NC(=O)/C2=C\c1ccc[nH]1 [GNF-5837] , please?
result: 97.9

----------
Test system: U2OS
METHOD_NOTES: cell viability relative to DMSO; higher = less toxic
TEST_PARAMETERS: 72 h; 10000 nM
PROPERTY_MEASURED: cell viability (%)
Record the value in %, omitting the unit from your answer.

Consider the worked cases shown below.
# MOLECULE, cell viability [%]
measured = [
    ("O[C@@H](C[C@H]1c2ccccc2-c2cncn21)C1CCCCC1", 90.7),
    ("CN([C@@H](Cc1ccc(OS(=O)(=O)c2cccc3cnccc23)cc1)C(=O)N1CCN(c2ccccc2)CC1)S(=O)(=O)c1cccc2cnccc12", 92.3),
    ("Cc1c(C(=O)NN2CCCCC2)nn(-c2ccc(Cl)cc2Cl)c1-c1ccc(Cl)cc1", 92.7),
    ("COc1ccc2[nH]c(C(=O)c3ccccc3)cc2c1", 23.3),
    ("Cc1ccccc1OCC(O)CO (configuration not stated)", 100),
]

query: Name the recorded cell viability for Cc1cccc(C)c1OCC(=O)N[C@@H](Cc1ccccc1)[C@@H](O)C[C@H](Cc1ccccc1)NC(=O)[C@H](C(C)C)N1CCCNC1=O [lopinavir] .
result: 93.3

query: Item Cc1cc(Cn2nnc3c(-c4ccco4)nc(N)nc32)ccc1N has what recorded cell viability?
result: 101

----------
System: Caco-2
METHOD_NOTES: cell viability relative to DMSO; higher = less toxic
TEST_PARAMETERS: 72 h; 10 nM
PROPERTY_MEASURED: cell viability (%)
Give just the numeric value; % need not be written.

Take a look at these entries with their results.
# MOLECULE, TEST_SYSTEM, cell viability (%)
rows = [
    ("CC[C@H]1CN2CC[C@H]1C[C@@H]2[C@@H](O)c1ccnc2ccc(OC)cc12 [hydroquinidine]", "Caco-2", 106),
    ("Cc1cccc(C)c1OCC(=O)N[C@@H](Cc1ccccc1)[C@@H](O)C[C@H](Cc1ccccc1)NC(=O)[C@H](C(C)C)N1CCCNC1=O", "Caco-2", 101),
    ("O=C(O)Cc1sc(-c2ccccc2)nc1-c1ccc(Cl)cc1", "Caco-2", 98.9),
    ("N=C(N)N/N=C/c1c(Cl)cccc1Cl [guanaben-acetate]", "Caco-2", 95.8),
    ("O=C(Nc1ccc(-c2ccnc(Nc3ccc(N4CCOCC4)cc3)n2)cc1)C1CCCN1 (centres undefined)", "Caco-2", 99.2),
    ("COc1cc2ncnc(Nc3ccc(Cl)cc3F)c2cc1OC", "Caco-2", 91.6),
    ("CCS(=O)(=O)Nc1ccc2c(c1)/C(=C(/Nc1ccc(CN3CCCCC3)cc1)c1ccccc1)C(=O)N2", "Caco-2", 91.8),
    ("O=C1NC(=S)NC(=O)C1C(=O)Nc1ccccc1", "Caco-2", 93.3),
    ("C[C@@H]([C@H](O)c1ccc(O)cc1)N1CCC(Cc2ccccc2)CC1 (racemic)", "Caco-2", 101),
    ("NC(=O)CC[C@H](N)C(=O)O", "Caco-2", 90.8),
]

query: Would you mind telling me what cell viability value was observed for CO[C@H]1CC[C@H](N(c2cc(C3=CCCCC3)sc2C(=O)O)C(=O)[C@H]2CC[C@H](C)CC2)CC1 ?
result: 93.4

query: Which cell viability is listed for N#CN=C(NCCCCCCOc1ccc(Cl)cc1)Nc1ccncc1 ?
result: 102

query: Any idea what its cell viability is? The molecule is N#Cc1cccc(C(=O)Nc2cc(-c3ccccc3)nn2-c2ccccc2)c1
result: 100

query: For the molecule O=S(=O)(N[C@H](CO)C(C(F)(F)F)C(F)(F)F)c1ccc(Cl)s1 , what cell viability is on record?
result: 102

query: What does the data say about its cell viability? Entry: COc1cc(OCc2cccc(-c3ccccc3)c2C)cc(OC)c1CN1CCCC[C@H]1C(=O)O
result: 94.5
